# Tested system: KDR (human, UniProt P35968 20-1356)
# Sequence (P35968 20-1356): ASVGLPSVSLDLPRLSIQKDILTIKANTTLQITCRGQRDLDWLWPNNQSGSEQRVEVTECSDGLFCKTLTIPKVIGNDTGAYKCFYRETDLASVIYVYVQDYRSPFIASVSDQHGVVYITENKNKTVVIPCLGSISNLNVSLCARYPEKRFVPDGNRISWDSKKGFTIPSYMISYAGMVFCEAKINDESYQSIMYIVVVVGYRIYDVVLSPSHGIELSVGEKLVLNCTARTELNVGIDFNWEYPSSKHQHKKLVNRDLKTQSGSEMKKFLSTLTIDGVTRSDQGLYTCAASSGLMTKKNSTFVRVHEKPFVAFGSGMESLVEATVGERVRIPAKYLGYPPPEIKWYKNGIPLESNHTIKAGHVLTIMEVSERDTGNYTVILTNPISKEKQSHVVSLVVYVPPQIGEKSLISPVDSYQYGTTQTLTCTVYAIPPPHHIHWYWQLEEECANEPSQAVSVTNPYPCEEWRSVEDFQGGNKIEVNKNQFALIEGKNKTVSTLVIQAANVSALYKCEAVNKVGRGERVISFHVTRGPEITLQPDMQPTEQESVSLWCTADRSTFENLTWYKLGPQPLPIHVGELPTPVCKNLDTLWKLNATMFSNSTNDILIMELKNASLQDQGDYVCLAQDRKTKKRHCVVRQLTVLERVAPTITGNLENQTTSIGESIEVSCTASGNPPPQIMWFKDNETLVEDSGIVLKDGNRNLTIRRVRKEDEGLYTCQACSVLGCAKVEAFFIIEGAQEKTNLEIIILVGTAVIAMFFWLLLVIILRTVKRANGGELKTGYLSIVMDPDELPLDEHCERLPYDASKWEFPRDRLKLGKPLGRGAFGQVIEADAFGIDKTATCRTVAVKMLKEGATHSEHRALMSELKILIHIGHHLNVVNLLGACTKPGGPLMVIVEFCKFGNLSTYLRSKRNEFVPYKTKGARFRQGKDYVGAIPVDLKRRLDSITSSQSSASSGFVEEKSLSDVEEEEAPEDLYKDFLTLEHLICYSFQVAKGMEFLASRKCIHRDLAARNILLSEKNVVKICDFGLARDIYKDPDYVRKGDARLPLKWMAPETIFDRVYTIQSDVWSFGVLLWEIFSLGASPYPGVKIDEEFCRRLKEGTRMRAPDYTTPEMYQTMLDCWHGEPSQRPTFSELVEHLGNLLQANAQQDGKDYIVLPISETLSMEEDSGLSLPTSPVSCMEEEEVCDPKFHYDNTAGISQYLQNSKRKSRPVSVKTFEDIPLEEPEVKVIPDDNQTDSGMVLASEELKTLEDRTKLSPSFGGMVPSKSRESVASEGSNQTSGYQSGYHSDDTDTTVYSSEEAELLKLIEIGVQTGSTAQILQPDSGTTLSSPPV
# Protocol description: cell-based or functional assay
Endpoint label: Activity at 133 nM (% Inhibition), 1-hour Pre-incubation at 4° C., Average

# Binder, Recorded result
data = [
    ("29A3 (antibody, V domains shown) VH: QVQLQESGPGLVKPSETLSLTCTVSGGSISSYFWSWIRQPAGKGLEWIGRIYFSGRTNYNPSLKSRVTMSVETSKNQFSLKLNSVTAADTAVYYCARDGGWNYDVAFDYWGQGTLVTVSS VL: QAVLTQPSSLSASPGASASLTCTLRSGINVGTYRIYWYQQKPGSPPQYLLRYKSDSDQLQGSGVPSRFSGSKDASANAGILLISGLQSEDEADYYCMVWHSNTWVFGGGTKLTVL", "23%"),
    ("32F4 (antibody, V domains shown) VH: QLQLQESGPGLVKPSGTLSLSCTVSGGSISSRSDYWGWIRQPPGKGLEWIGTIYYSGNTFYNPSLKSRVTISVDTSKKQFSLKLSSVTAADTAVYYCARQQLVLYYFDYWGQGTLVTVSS VL: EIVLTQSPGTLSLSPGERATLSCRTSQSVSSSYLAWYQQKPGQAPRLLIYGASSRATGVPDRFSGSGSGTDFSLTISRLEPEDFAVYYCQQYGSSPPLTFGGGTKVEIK", "64%"),
    ("24B3 (antibody, V domains shown) VH: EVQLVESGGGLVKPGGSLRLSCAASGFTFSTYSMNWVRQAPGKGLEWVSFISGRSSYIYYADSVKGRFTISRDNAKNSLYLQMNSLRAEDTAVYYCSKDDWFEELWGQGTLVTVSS VL: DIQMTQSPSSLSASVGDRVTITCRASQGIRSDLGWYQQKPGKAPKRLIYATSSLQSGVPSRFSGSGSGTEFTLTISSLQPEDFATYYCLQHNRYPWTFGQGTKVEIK", "80%"),
    ("21H9 (antibody, V domains shown) VH: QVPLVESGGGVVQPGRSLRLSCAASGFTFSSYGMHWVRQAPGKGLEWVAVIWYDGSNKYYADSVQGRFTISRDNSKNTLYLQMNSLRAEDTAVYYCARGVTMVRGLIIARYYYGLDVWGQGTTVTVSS VL: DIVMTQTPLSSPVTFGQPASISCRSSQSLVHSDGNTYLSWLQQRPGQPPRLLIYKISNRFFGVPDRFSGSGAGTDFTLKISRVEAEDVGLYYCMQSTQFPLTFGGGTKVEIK", "26%"),
]
